Hi there, I'd appreciate the recorded MIC for every entry that follows.
System: S. aureus strain 4-140
assay.context: broth microdilution, triplicate; isolate 4-140, resistance TET
Non-standard residues stand in square brackets, D forms with d. Residues, ends and D or L forms follow the SMILES beside them. *: point of attachment. Tetradecanoyl(3R-OH) = CCCCCCCCCCC[C@@H](O)CC(=O)*; Tetradecanoyl(3S-OH) = CCCCCCCCCCC[C@H](O)CC(=O)*
Unit µg/mL implied. Number only.

Find the recorded MIC belonging to CCCCCCCCCCC[C@@H](O)CC(=O)N[C@@H](Cc1c[nH]c2ccccc12)C(=O)N[C@@H](CO)C(=O)N[C@H](Cc1c[nH]c2ccccc12)C(=O)N[C@@H](Cc1ccccc1)C(=O)N[C@@H](C(=O)N[C@@H](C)C(=O)N[C@H](C(=O)O)C(C)C)[C@H](C)O [13R] ({Tetradecanoyl(3R-OH)}-WS[dW]F[dT]AV-OH) and report it. 16

For the compound shown here, CCCCCCCCCCC[C@H](O)CC(=O)N[C@@H](Cc1c[nH]c2ccccc12)C(=O)N[C@@H](CO)C(=O)N[C@H](Cc1c[nH]c2ccccc12)C(=O)N[C@@H](Cc1ccccc1)C(=O)N[C@@H](C(=O)N[C@@H](C)C(=O)N[C@H](C(=O)O)C(C)C)[C@H](C)O [13S] ({Tetradecanoyl(3S-OH)}-WS[dW]F[dT]AV-OH) , give the reported MIC. 16

# query: MIC of entry CCCCCCCCCCC[C@@H](O)CC(=O)N[C@@H](Cc1c[nH]c2ccccc12)C(=O)N[C@@H](CO)C(=O)N[C@H](Cc1c[nH]c2ccccc12)C(=O)N[C@@H](Cc1ccccc1)C(=O)N[C@@H](C(=O)N[C@H](C(=O)N[C@H](C(=O)O)C(C)C)C(C)C)[C@H](C)O [12R] ({Tetradecanoyl(3R-OH)}-WS[dW]F[dT]VV-OH) 8

I would be grateful if you could share the reported MIC for CCCCCCCCCCC[C@H](O)CC(=O)N[C@@H](Cc1c[nH]c2ccccc12)C(=O)N[C@@H](CO)C(=O)N[C@H](Cc1c[nH]c2ccccc12)C(=O)N[C@@H](Cc1ccccc1)C(=O)N[C@@H](C(=O)N[C@H](C(=O)N[C@H](C(=O)O)C(C)C)C(C)C)[C@H](C)O [12S] ({Tetradecanoyl(3S-OH)}-WS[dW]F[dT]VV-OH) . 16

----------
experiment.notes: critical micelle concentration, Nile Red fluorescence
Type: physicochemical
assay.context: overnight equilibration, intersection of linear fits of fluorescence vs log concentration
Non-standard residues stand in square brackets, D forms with d. Residues, ends and D or L forms follow the SMILES beside them. *: point of attachment. Tetradecanoyl(3R-OH) = CCCCCCCCCCC[C@@H](O)CC(=O)*; Tetradecanoyl(3S-OH) = CCCCCCCCCCC[C@H](O)CC(=O)*
endpoint.label: CMC

So what's the measured CMC for this one? CCCCCCCCCCC[C@H](O)CC(=O)N[C@@H](Cc1c[nH]c2ccccc12)C(=O)N[C@@H](CO)C(=O)N[C@H](Cc1c[nH]c2ccccc12)C(=O)N[C@@H](Cc1ccccc1)C(=O)N[C@@H](C(=O)N[C@H](C(=O)N[C@H](C(=O)O)C(C)C)C(C)C)[C@H](C)O [12S] ({Tetradecanoyl(3S-OH)}-WS[dW]F[dT]VV-OH) ~70 µg/mL

Any idea what CMC was measured for CCCCCCCCCCC[C@H](O)CC(=O)N[C@@H](Cc1c[nH]c2ccccc12)C(=O)N[C@@H](CO)C(=O)N[C@H](Cc1c[nH]c2ccccc12)C(=O)N[C@@H](Cc1ccccc1)C(=O)N[C@@H](C(=O)N[C@@H](C)C(=O)N[C@H](C(=O)O)C(C)C)[C@H](C)O [13S] ({Tetradecanoyl(3S-OH)}-WS[dW]F[dT]AV-OH) ? ~40 µg/mL

// CMC lookup, key: CCCCCCCCCCC[C@@H](O)CC(=O)N[C@@H](Cc1c[nH]c2ccccc12)C(=O)N[C@@H](CO)C(=O)N[C@H](Cc1c[nH]c2ccccc12)C(=O)N[C@@H](Cc1ccccc1)C(=O)N[C@@H](C(=O)N[C@@H](C)C(=O)N[C@H](C(=O)O)C(C)C)[C@H](C)O [13R] ({Tetradecanoyl(3R-OH)}-WS[dW]F[dT]AV-OH) ~12 µg/mL

Every entry's value here was drawn from paper PMC12024397.
